assayed.system: human MD-2 (hMD-2) (Homo sapiens, UniProt Q9Y6Y9)
Sequence (Q9Y6Y9 19-160): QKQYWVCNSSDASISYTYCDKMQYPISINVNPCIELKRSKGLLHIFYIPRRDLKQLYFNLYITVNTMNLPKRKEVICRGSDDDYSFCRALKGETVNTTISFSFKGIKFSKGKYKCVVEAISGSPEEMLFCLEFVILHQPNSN
readout.name: Kd (µM)
Report only the number, with the unit µM understood.

Can you look up the measured Kd of CCCCCCCC/C=C\CCCCCCCC(=O)N[C@H]1[C@H](OC(=O)CCC(=O)O)O[C@H](CO)[C@@H](OC(=O)CCC(=O)O)[C@@H]1OC(=O)CCCCCCCCCCCCC for me?
14

* * *

assayed.system: human TLR4 (Homo sapiens, UniProt O00206+Q9Y6Y9)
Sequence (O00206 24-839): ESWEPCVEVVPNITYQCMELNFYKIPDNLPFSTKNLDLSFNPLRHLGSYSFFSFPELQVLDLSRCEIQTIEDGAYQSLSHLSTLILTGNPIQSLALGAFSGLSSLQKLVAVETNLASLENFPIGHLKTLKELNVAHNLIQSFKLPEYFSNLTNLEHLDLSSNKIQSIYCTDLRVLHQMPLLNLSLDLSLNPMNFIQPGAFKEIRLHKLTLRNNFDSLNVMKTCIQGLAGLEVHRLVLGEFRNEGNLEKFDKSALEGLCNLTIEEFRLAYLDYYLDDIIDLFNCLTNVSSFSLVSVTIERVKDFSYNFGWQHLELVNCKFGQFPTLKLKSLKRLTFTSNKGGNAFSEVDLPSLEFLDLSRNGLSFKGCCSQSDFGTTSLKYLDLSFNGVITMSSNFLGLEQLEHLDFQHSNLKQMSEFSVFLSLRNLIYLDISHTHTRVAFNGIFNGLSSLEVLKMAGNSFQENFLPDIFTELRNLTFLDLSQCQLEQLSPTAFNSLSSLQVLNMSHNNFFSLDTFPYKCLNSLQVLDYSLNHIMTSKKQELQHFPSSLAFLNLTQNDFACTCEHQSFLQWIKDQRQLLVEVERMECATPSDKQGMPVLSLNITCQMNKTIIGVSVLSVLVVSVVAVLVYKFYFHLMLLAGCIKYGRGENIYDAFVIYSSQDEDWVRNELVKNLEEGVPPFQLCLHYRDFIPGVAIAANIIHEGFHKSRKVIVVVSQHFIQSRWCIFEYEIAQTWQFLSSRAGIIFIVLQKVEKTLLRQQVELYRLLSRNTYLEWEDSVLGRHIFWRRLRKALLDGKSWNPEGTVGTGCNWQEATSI
Sequence (Q9Y6Y9 19-160): as the sequence (Q9Y6Y9 19-160) above
protocol.text: Inhibition of LPS-stimulated TLR4 activation in HEK293-Blue hTLR4 cells (SEAP reporter)
condition.label: LPS 100 ng/mL, 15 min pre-incubation, 16 h, serum-free DMEM
Procedure: Synthetic monosaccharides were screened for their capacity to activate or inhibit LPS-stimulated TLR4 activation in HEK293-Blue hTLR4 cells. […] Activation of the MyD88-dependent TLR4 pathway promotes the production and secretion of SEAP in the cell culture media, which can be easily quantified. SEAP levels in cell culture media were quantified after 16 hours as indicator of TLR4 activation. […] The wells optical density was determined using a microplate reader (labtech LT-4000) set to 405 nm.
readout.name: pIC50
Give only the number. pIC50 is defined as minus log10 of concentration in molar units.

Can you look up the measured pIC50 of CCCCCCCCCCCCCC(=O)N[C@H]1[C@H](OC(=O)CCC(=O)O)O[C@H](CO)[C@@H](OC(=O)CCC(=O)O)[C@@H]1OC(=O)CCCCCCCCCCCCC for me?
5.57

Input CCCCCCCC/C=C\CCCCCCCC(=O)N[C@H]1[C@H](OC(=O)CCC(=O)O)O[C@H](CO)[C@@H](OC(=O)CCC(=O)O)[C@@H]1OC(=O)CCCCCCCCCCCCC
5.46

Input CCCCC/C=C\C/C=C\CCCCCCCC(=O)N[C@H]1[C@H](OC(=O)CCC(=O)O)O[C@H](CO)[C@@H](OC(=O)CCC(=O)O)[C@@H]1OC(=O)CCCCCCCCCCCCC
5.18

Input CCCCCCCC/C=C\CCCCCCCC(=O)N[C@H]1[C@H](OC(=O)CCC(=O)O)O[C@H](CO)[C@@H](OC(=O)CCC(=O)O)[C@@H]1OC(=O)CCCCCCC/C=C\CCCCCCCC
5.23

Input CCCCC/C=C\C/C=C\CCCCCCCC(=O)N[C@H]1[C@H](OC(=O)CCC(=O)O)O[C@H](CO)[C@@H](OC(=O)CCC(=O)O)[C@@H]1OC(=O)CCCCCCC/C=C\C/C=C\CCCCC
5.36
